Molecular target: IRAK4 (Homo sapiens)
Sequence (Q9NWZ3 whole entry): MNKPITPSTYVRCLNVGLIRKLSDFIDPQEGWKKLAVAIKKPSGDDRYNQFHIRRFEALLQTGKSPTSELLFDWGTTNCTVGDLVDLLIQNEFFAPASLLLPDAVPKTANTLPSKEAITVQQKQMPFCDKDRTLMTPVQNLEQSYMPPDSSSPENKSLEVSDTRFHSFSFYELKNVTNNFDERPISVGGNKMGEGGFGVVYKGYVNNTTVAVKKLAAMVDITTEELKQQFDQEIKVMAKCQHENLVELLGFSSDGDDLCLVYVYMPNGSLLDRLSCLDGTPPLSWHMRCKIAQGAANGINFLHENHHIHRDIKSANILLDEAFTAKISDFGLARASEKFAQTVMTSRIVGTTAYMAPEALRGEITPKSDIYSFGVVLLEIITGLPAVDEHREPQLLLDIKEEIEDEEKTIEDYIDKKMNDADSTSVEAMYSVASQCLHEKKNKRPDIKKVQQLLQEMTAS
Assay: 2-hour 1 mM ATP IRAK4 Biochemical assay (as above, but with 100 pM IRAK4 and 1 mM ATP)
Details: IRAK4 MSD BIOCHEMICAL (1 mM ATP) IC50 (μM), 100 pM IRAK4, 2 hours
IC50 reference
# output: bare number, implied unit µM

Some solved entries appear below for comparison.
>  <compound>
Cc1cccc(C(=O)Nc2cn3cc(C45COC(C)(C4)C5)nc3nc2OC(C)C)c1F [Example 490]

>  <IC50, µM>
0.001

$$$$
>  <compound>
COc1ncccc1C(=O)Nc1cn2cc(C34CCC(C)(C3)OC4)nc2c(F)c1OC(C)C (stereo not shown) [Example 435, 2,2,2-trifluoroacetate]

>  <IC50, µM>
0.012

$$$$
>  <compound>
CCOc1cc2nc(C3CN(C(C)=O)C3)cn2cc1NC(=O)c1cccc(C(F)(F)F)n1 [Example 68]

>  <IC50, µM>
0.001

$$$$

[ask] Write down IC50 measured for item COc1cc(NC(=O)c2cccc(C(F)F)n2)cn2cc(C3CC4(CCOC4)C3)nc12 (stereo not shown) [Example 507]
[reply] 0.004
